The values you see were collected from the supplement of paper PMC10567573.

B1: CLCN6 (parent)
chain: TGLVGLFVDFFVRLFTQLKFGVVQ

# Variants of: B1
# experiment.description: protein stability index of a GFP-peptide fusion (GPS, HEK-293T) (PSI 1-6); higher = more stable;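 note: lentivirally expressed fusions sorted by FACS into six bins by GFP to DsRed ratio, PSI derived from sequencing read proportions per bin multiplied by bin number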
# cond: c terminus: a fixed tail appended
quantity: protein stability index
One number for each entry.

{"mutation.label": "L18S", "observed": 2.03}
{"mutation.label": "D9F", "observed": 2.17}
{"mutation.label": "F7A", "observed": 2.38}
{"mutation.label": "V23Q", "observed": 2.77}
{"mutation.label": "L14G", "observed": 1.68}
{"mutation.label": "Q24A", "observed": 1.66}

Hey, can you go through the list below and give me protein stability index for every item?
1. T16D
2. Q24T
3. F15K
4. V12H
5. D9S
6. Q17H
7. L6A

Result:
1: 2.42; 2: 1.6; 3: 2.12; 4: 2.09; 5: 2.15; 6: 2.26; 7: 2.77
